# inhibition per entry
# protocolText: inhibitors of poly I:C-induced TLR3 signaling, primary screen, cell-based, poly I:C stimulus, luciferase, 10K MLSCN set (AID 602277)
# runParameters: HEK293-TLR3 RL24 IRF3 luciferase reporter, at 10 µM, stronger effect = higher value

compound	inhibition, %
Cc1cc(OCC(=O)Nc2ccc3oc(-c4ccncc4)nc3c2)ccc1Cl	-47.1
CCCNC(=O)NS(=O)(=O)c1ccc(Cl)cc1	14.7
COc1cc(-c2nn3c(-c4cccnc4)nnc3s2)cc(OC)c1OC	8.92
C[C@]12CC[C@@H]3c4ccc(O[C@@H]5O[C@H](C(=O)O)[C@@H](O)[C@H](O)[C@H]5O)cc4CC[C@H]3[C@@H]1C[C@@H](O)[C@@H]2O	32.3
CCN(CC)c1ncc(C)c(=O)[nH]1	22
c1ccc(-c2ccc(C(c3ccccc3)n3ccnc3)cc2)cc1 (stereo unspecified)	18.2
O=S(=O)(NCc1cccnc1)c1cccc2nsnc12	21.7
O=C(NCCO)c1cccc2c1C(=O)c1ccccc1-2	-1.91
c1ccc(Cc2nnc3n2CCCCC3)cc1	22.9
COc1cc(NS(=O)(=O)c2ccc(N)cc2)nc(OC)n1	51.9
COc1ccc(/C=C(/C#N)c2cccnc2)cc1OC	-45.5

* * *

# protocolText: inhibitors of E-selectin induction by TNFa, primary screen, imaging, HUVEC, immunofluorescence, MLSMR starter and 10KST1 sets (AID 487);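 for nuclei count: 100% = median nuclei count of all wells on the same plate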
# runParameters: HUVEC TNFalpha-induced E-selectin immunofluorescence imaging, at 2 µM; measured here: cell number, toxicity
# nuclei count per entry

compound	nuclei count (%)
O=c1c(C=NCCCn2ccnc2)c(-c2ccccc2)[nH]n1-c1nc2ccccc2s1	132
CC(=NC1CCCC1)c1c(C)[nH]n(-c2nc3ccccc3s2)c1=O	142
CNC(=O)c1cc2c(ccc3ccccc32)oc1=N	134
CCOC(=O)C1=C(C)NC(SCC(=O)Nc2nc(C)cs2)=C(C#N)C1c1cccs1 (stereo unspecified)	106
CC1(C)Cc2c(sc3c2C2=NCCN2C=N3)CS1	138
Cn1c(=O)c2c3c(sc2n2c(SCC(N)=O)nnc12)CC(C(C)(C)C)CC3 (stereo unspecified)	91.7
CCC(C(=O)OCCN(CC)CC)c1ccccc1 (stereo unspecified)	130
Cc1cc(=O)oc(C)c1C(=O)N[C@@H]1CCCCNC1=O	150
COc1ccc(C(=O)Nc2nc(N)n(-c3ccccc3)n2)cc1OC	154
COCc1cc(=O)[nH]c(Nc2nc3ccccc3o2)n1	95.2
c1ccc2c(CC3=NCCN3)cccc2c1	118

* * *

# protocolText: inhibitors of TNFa-induced NFkB p65 translocation, primary screen, imaging, HUVEC, MLSMR starter and 10KST1 sets (AID 438);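 note: compound added about 3h40 before a 20 min TNFalpha stimulation; signal is the nuclear over cytoplasmic p65 intensity ratio per well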
# runParameters: HUVEC TNFa-induced p65 nuclear translocation; at 2 µM, stronger effect = higher value, 0% TNFa-plus-vehicle, 100% no-TNFa wells

compound	inhibition (%)
c1ccc(CN2CCN(c3ncnc4c3[nH]c3ccccc34)CC2)cc1	-13.1
COc1ccc(/C(O)=C2\C(=O)C(=O)N(CCN(C)C)C2c2cccc(OC)c2OC)cc1 (stereo unspecified)	-5.4
CN1CCN(Cc2c(O)ccc3c(-c4ccccc4)cc(=O)oc23)CC1	6
COc1cccc(-c2nc(NCCN3CCOCC3)c3ccccc3n2)c1O	-7.9
CCCCNC1=C(Br)C(=O)CC(C)(C)C1	-30.7
Cn1c(NCC(O)c2ccccc2)nc2c1c(=O)n(Cc1ccc(Cl)c(Cl)c1)c(=O)n2C (stereo unspecified)	-6.1
Cc1cccn2c(=O)c3cc(C#N)c(=N)n(Cc4ccncc4)c3nc12	-18.3
COc1cccc(-c2nc(NC(C)(C)C)c3ccccc3n2)c1O	0
O=C(c1cncc(Br)c1)N1CCCc2ccccc21	-1.1
C=CCNc1nc(-c2cccc(OC)c2O)nc2ccccc12	5.6
Nc1ccc(S(=O)(=O)c2ccc(N)cc2)cc1	-1.5

* * *

# protocolText: inhibitors of Chlamydomonas gravitaxis, primary screen, whole organism, Chlamydomonas reinhardtii, WT vs cilia-less mutant, absorbance, 96-well (AID 463189);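 note: 0% = wild type cc124 cells in DMSO and 100% = ciliumless bld1 mutant cells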
# runParameters: OD600 absorbance, 2 days, at 10 µM, stronger effect = higher value
# inhibition per entry
valueType: inhibition (%)

compound	valueType	valueUnits	recordedMeasurement
O=C(c1ccco1)N1CCN(CCOCCOc2cccc3ccccc23)CC1	inhibition	%	16.4
CCCCc1c(C)nn(-c2nnc3c4ccccc4n(C)c3n2)c1C	inhibition	%	21.4
O=C1CCC(=O)N1CN(C(=O)c1ccco1)c1ccc(Cl)c(Cl)c1	inhibition	%	-12.3
COC(=O)c1cccc(Nc2cc(C)nc(-c3ccccc3O)n2)c1	inhibition	%	5.5
CC(C)(C)n1nnc(CCc2nnn(C(C)(C)C)n2)n1	inhibition	%	-11.8
O=C(C1=C(O)C(=O)N(CCCN2CCOCC2)C1c1ccccn1)c1cccs1 (stereo not drawn)	inhibition	%	-6.32
COC(=O)c1ccc(C2C(C(=O)c3cc4ccccc4o3)=C(O)C(=O)N2CCCN(C)C)cc1 (stereo not drawn)	inhibition	%	-1.14
COc1ccc(C2CC(=O)C(C=NCCN3CCOCC3)=C(O)C2)cc1 (stereo not drawn)	inhibition	%	7.09
c1ccc(OCc2nn3c(-c4cccnc4)nnc3s2)cc1	inhibition	%	22.5
COc1cc(/C=N/O)ccc1OCc1ccc(C(=O)O)cc1	inhibition	%	-7.38
O=C1C(=O)N(CCN2CCOCC2)C(c2ccccn2)/C1=C(/O)c1ccc(F)cc1 (stereo not drawn)	inhibition	%	38.7
CCCCCC(=O)N1CC2(C)CN(C(=O)CCCCC)CC(C)(C1)C2=O	inhibition	%	24
Cc1nc2sc3c(c2c(=O)o1)CC(C)(C)OC3	inhibition	%	-15.1
Cc1ccc2[nH]c3c(NCCN4CCOCC4)ncnc3c2c1	inhibition	%	2.83
C1CCC(C(CC2CCCCN2)C2CCCCC2)CC1 (stereo not drawn)	inhibition	%	162
O=C(c1ccc2c(c1)OCCO2)N1CCCCC1	inhibition	%	-4.88
Cc1ccc(N2C(=O)C3ON(c4ccccc4)C(c4ccncc4)C3C2=O)c(C)c1 (stereo not drawn)	inhibition	%	0.697
Cn1c(=O)c2c(nc(Br)n2CCSc2ncccn2)n(C)c1=O	inhibition	%	36.1
CCN(CC)CCN1C(=O)C(=O)/C(=C(/O)c2c(C)[nH]c(C(=O)OC)c2C)C1c1ccco1 (stereo not drawn)	inhibition	%	4.53
COC(=O)C(NC(C)=O)(Nc1nc2c(s1)CCCC2)C(F)(F)F (stereo not drawn)	inhibition	%	-6.09
CCOc1nnnc2c1sc1nc(N3CCOCC3)c3c(c12)CC(C)(C)OC3	inhibition	%	-7.31
Cn1c(Cl)cnc1C1CC(=O)c2cc(Cl)ccc2O1 (stereo not drawn)	inhibition	%	-12.2
CCCCOc1ccc(C2CC(=O)N(C)C2=O)cc1 (stereo not drawn)	inhibition	%	3.29

* * *

# protocolText: inhibitors of mutant huntingtin aggregation, primary screen, imaging, exon1htt(103Q)mCFP cells, high-content imaging (AID 483);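 note: compound exposure lasted 3 days before fixation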
# runParameters: exon1htt(103Q)mCFP cell line, aggregate imaging, at 2 µM; stronger effect = higher value
# inhibition of aggregation per entry

molecule	valueUnits	inhibition of aggregation
CN1CCN(CC(=O)N2c3ccccc3C(=O)Nc3cccnc32)CC1	%	-20
CN(C)[C@@H]1C(=O)C(C(N)=O)=C(O)[C@@]2(O)C(=O)C3=C(O)c4c(O)ccc(Cl)c4[C@@H](O)[C@H]3C[C@@H]12	%	77.8
Cc1ncc([N+](=O)[O-])n1CC(O)CCl (stereo not given)	%	-12.8
CC(C)(C)NCC(O)c1cc(O)cc(O)c1 (stereo not given)	%	21.1
CCCOc1ccc(N2C(=O)C3ON(c4ccccc4)C(c4ccc(O)c(OC)c4)C3C2=O)cc1 (stereo not given)	%	2.2

* * *

# protocolText: inhibitors of E-selectin induction by TNFa, primary screen, imaging, HUVEC, immunofluorescence, MLSMR starter and 10KST1 sets (AID 487);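 for inhibition: signal is fraction of cell area covered by stained E-selectin grains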
# runParameters: HUVEC TNFalpha-induced E-selectin immunofluorescence imaging, at 2 µM; stronger effect = higher value

molecule	inhibition / %
COc1cc(-c2nn3c(-c4ccccn4)nnc3s2)cc(OC)c1OC	-249
CCOC(=O)CSc1nnc2n(C3CCCCC3)c(=O)c3c4c(sc3n12)CCCC4	-104
CCOC(=O)C1(c2nc(N)cs2)COC(=O)C1 (stereo not given)	15.9
CC(C)OC(=O)c1sc2nc3c(cc2c1N)C(=O)CCC3	-109
CCCCN1C[C@H](O)[C@@H](O)[C@H](O)[C@H]1CO	-34.3
CCOc1nc(SCCOc2ccc(C)cc2)nc(N(C)C)n1	-115
O=S(CCc1ccncc1)Cc1ccccc1 (stereo not given)	-114
COC(=O)c1cc(Br)c(=O)n(-c2nccs2)c1	-134
c1ccc2c(NCC3CCCO3)nc(-c3ccncc3)nc2c1 (stereo not given)	-260
CCOC(=O)CSC1=C(C#N)C(c2ccc3c(c2)OCO3)CC(=O)N1 (stereo not given)	-43.4
CCC(C(=O)Nc1ncn[nH]1)(C(F)(F)F)C(F)(F)F	-106
Cc1cc(N2C(=O)C(=O)/C(=C(/O)c3ccccc3)C2c2cccc(Br)c2)no1 (stereo not given)	-43.8
COc1ccccc1N(O)C1CC(=O)N(c2ccc(Br)cc2)C1=O (stereo not given)	46
O=C1c2ccccc2C(=O)C1c1ccc2ccccc2n1	-56
Cc1cc(C(F)(F)F)c(C#N)c(SCC(=O)NC2CC2)n1	2.6
Cc1cc(C)c(NC(=O)OCCN2CCOCC2)c(C)c1	-82.2
COC(=O)CC1=C(C(=O)OC)C(c2ccc3c(c2Cl)OCO3)C(C#N)=C(N)O1 (stereo not given)	-43.9
CCOC(=O)CC(=O)CSc1nc2c(cc1C#N)CCCCC2	-29.1
Cc1c(OCC(F)(F)F)ccnc1CS(=O)c1nc2ccccc2[nH]1 (stereo not given)	-74.2
CCN(CCCCOC(=O)c1ccc(OC)c(OC)c1)C(C)Cc1ccc(OC)cc1 (stereo not given)	-106
Cc1nc2ccccn2c(=O)c1CCN1CCC(C(=O)c2ccc(F)cc2)CC1	-63.6
O=C1C(=O)N(CCN2CCOCC2)C(c2ccccn2)/C1=C(/O)c1ccc(F)cc1 (stereo not given)	-3.3
Cc1c(/C(O)=C2\C(=O)C(=O)N(CCN(C)C)C2c2cccnc2)cnn1-c1ccccc1 (stereo not given)	-140
CCC[C@@H]1C[C@@H](C(=O)N[C@H]([C@@H](C)O)[C@H]2O[C@H](SC)[C@H](O)[C@@H](O)C2O)N(C)C1 (stereo not given in full)	-57.7
CN1CCc2c(sc3ncn4nc(-c5ccccc5O)nc4c23)C1	-51.6
CC(=O)O[C@H]1C(=O)[C@]2(C)[C@H]([C@H](OC(=O)c3ccccc3)[C@]3(O)C[C@H](OC(=O)[C@H](O)[C@@H](NC(=O)c4ccccc4)c4ccccc4)C(C)=C1C3(C)C)[C@]1(OC(C)=O)CO[C@@H]1C[C@@H]2O	-188
C=CCn1c(SCC(=O)c2ccccc2)nnc1-c1ccc2c(c1)OCO2	-60.6
Nc1cccc(C(=O)O)c1	-31.1
CCCCCCCCCCCCCCCC(O)C(N)CO (stereo not given)	-75.6
CN(C)CCC=C1c2ccccc2CCc2ccccc21	-17.7
O=C(CCCN1C(=O)c2ccccc2C1=O)N1CCC(c2ccccc2)C1 (stereo not given)	-109
CC(C)c1nc2n[nH]c(N)c2c2c1CCC2	-74.3
CCOC(=O)CSc1nc(N)c(C#N)c(-c2ccc(OC)cc2)c1C#N	-88.5
O=C(C1CCN(c2nnc(-n3cccc3)s2)CC1)N1CCc2ccccc2C1	-9.9
NS(=O)(=O)c1cc2c(cc1Cl)NC(C(Cl)Cl)NS2(=O)=O (stereo not given)	-57
Cc1ccc(/C=c2\sc3n(c2=O)CN(c2ccc(Br)cc2)CN=3)o1	-127
COC(=O)c1ccc(Nc2cc(C)nc(-c3ccccc3O)n2)cc1	-66.3
Cn1c(O)c(C=Nc2ccc(Cc3ccncc3)cc2)c(=O)n(C)c1=O	-91
COc1ccc(/C=N/n2cncn2)cc1CSc1ccccn1	-137
COC(=O)c1ccc(C2NC(C(=O)O)CS2)cc1 (stereo not given)	-8.7
CC1(C)Cc2c(sc(NC(=O)c3ccc(Br)o3)c2C#N)CO1	-330
Cn1c(=O)n(CCC(=O)O)c2ccccc21	-65.4
CC1(C)Cc2c(sc3ncn4nnnc4c23)CO1	-182
Cc1nc(SCC(N)=O)[nH]c(=O)c1Cc1ccc(OC(C)C)cc1	22.1
COc1ccc(NCc2cc3ccccc3[nH]c2=O)cc1	-69.8
